- assay-target: T1, human vascular endothelial growth factor receptor-2 Fc chimera (KDR-Fc) (human, UniProt P35968 20-764)
- T1 construct: range 1-764; also called human VEGFR-2; not shown: human IgG1 Fc
- T1 sequence (P35968 20-764 limits assumed, change not shown, form in doubt): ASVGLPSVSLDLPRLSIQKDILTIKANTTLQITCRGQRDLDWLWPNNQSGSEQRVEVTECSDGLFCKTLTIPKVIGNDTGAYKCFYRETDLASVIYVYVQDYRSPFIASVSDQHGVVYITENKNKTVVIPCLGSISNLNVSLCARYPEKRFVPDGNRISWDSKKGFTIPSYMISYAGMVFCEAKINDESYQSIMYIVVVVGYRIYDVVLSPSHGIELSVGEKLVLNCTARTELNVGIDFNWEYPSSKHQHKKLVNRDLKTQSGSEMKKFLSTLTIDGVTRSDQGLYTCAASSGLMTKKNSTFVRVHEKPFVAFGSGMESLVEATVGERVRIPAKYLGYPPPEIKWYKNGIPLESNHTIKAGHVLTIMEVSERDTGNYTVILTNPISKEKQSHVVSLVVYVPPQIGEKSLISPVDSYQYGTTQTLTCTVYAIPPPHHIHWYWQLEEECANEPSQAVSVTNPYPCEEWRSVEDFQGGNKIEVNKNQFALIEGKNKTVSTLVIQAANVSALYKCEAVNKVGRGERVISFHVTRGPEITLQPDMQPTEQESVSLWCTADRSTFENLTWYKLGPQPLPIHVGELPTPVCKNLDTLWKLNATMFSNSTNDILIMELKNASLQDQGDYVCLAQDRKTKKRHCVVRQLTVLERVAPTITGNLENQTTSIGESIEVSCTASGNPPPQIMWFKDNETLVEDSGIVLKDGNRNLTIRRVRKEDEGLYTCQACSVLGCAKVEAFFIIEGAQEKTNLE
- test: radioactive equilibrium binding assay, 1 nM KDR-Fc, % of input bound
readout-label: Binding to 1 nM KDR, % (%)
Field: numeric (%). Do not append units.

Asked: Please report the recorded Binding to 1 nM KDR, % for E19 (designed binder, 10Fn3 clone, Del 1-8) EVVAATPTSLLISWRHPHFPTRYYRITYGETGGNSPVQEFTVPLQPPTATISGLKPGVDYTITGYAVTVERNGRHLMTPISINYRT .
Given back: 38
